Test system: blackgrass (Alopecurus myosuroides)
Experiment: Test C pre-/postemergence plant response
Assay type: in vivo
Settings: Preemergence, 31 g ai/ha; scale 0 to 100 (0 no effect, 100 complete control)
Field: Plant response rating, Blackgrass. Provide a value for each of the compounds that follow.
Numbers only.

As a guide, the following entries are already answered.
The reported blackgrass (Alopecurus myosuroides) Plant response rating, Blackgrass of CCc1cc(-c2ccc(C(F)(F)F)cc2)nn1-c1c(O)cnn(C)c1=O is 90

Given the compound CCc1cc(-c2ccc(Cl)cc2)nn1-c1c(OC(=O)OC(C)C)cnn(C)c1=O and test system blackgrass (Alopecurus myosuroides), the measured Plant response rating, Blackgrass is 100

Log: blackgrass (Alopecurus myosuroides), compound CCc1cc(-c2ccc(C(F)(F)F)cc2)nn1-c1c(OS(C)(=O)=O)cnn(C)c1=O , Plant response rating, Blackgrass = 100

The observed Plant response rating, Blackgrass for COC(=O)Oc1cnn(C)c(=O)c1-n1nc(-c2ccc(Cl)cc2)cc1C when tested with blackgrass (Alopecurus myosuroides) stands at 80

Plant response rating, Blackgrass on blackgrass (Alopecurus myosuroides) for Cc1cc(-c2ccc(Cl)cc2)nn1-c1c(OC(=O)C(C)C)cnn(C)c1=O is 75

Please examine the following record next.
The observed Plant response rating, Blackgrass for Cc1cc(-c2ccc(Cl)cc2)nn1-c1c(OS(=O)(=O)c2ccccc2[N+](=O)[O-])cnn(C)c1=O when tested with blackgrass (Alopecurus myosuroides) stands at 100
